- experimental-system: Acetylcholinesterase (Electrophorus electricus, UniProt O42275)
- Sequence (O42275 whole entry): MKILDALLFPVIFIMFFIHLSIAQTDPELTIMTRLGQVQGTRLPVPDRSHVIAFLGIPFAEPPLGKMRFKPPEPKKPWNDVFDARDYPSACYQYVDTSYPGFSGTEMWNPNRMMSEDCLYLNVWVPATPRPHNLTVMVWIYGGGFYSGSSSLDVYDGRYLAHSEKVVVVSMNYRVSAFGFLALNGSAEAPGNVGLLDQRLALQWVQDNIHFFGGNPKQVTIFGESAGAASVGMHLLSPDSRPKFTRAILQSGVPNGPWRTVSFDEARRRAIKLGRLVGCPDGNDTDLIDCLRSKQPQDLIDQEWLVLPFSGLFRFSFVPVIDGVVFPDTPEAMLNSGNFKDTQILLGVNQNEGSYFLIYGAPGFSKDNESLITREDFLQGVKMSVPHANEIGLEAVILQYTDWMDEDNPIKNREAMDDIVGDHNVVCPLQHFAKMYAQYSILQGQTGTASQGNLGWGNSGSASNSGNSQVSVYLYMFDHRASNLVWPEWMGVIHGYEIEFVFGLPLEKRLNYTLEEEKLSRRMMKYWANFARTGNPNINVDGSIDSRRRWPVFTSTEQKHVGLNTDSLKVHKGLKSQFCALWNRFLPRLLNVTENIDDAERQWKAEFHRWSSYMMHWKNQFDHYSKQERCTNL
- procedure-summary: Inhibition of electric eel AChE
- condition-details: read-out: IC50
reported-endpoint: pIC50
Give bare numbers, as −log10 of the molar value.

Would you please look over these solved cases?
{"given-smiles": "O=C(NO)c1ccc(S(=O)(=O)NCC2CCN(Cc3ccccc3)CC2)cc1", "experimental-system": "Acetylcholinesterase (Electrophorus electricus, UniProt O42275)", "reported-endpoint": "pIC50", "quantitative-readout": 5.49}
{"given-smiles": "Nc1ccccc1NC(=O)/C=C/c1ccc(C(=O)NCC2CCN(Cc3ccccc3)CC2)cc1", "experimental-system": "Acetylcholinesterase (Electrophorus electricus, UniProt O42275)", "reported-endpoint": "pIC50", "quantitative-readout": 4.86}
{"given-smiles": "Nc1ccccc1NC(=O)c1ccc(CCC(=O)NCC2CCN(Cc3ccccc3)CC2)cc1", "experimental-system": "Acetylcholinesterase (Electrophorus electricus, UniProt O42275)", "reported-endpoint": "pIC50", "quantitative-readout": 4.91}
{"given-smiles": "Nc1ccccc1NC(=O)c1cccc(C(=O)NCC2CCN(Cc3ccccc3)CC2)c1", "experimental-system": "Acetylcholinesterase (Electrophorus electricus, UniProt O42275)", "reported-endpoint": "pIC50", "quantitative-readout": 4.49}

From here, focus on the item given below.
Fill in the recorded pIC50 for this molecule, with Acetylcholinesterase (Electrophorus electricus, UniProt O42275) as test system: "Nc1ccccc1NC(=O)c1ccc(S(=O)(=O)NCC2CCN(Cc3ccccc3)CC2)cc1" 6.31

====

- experimental-system: Histone deacetylase
- Format: cell-based, Homo sapiens
- condition-details: hela
- Description: Inhibition of HDAC in human HeLa cell extracts
Could you please report measured log10(IC50) for the items listed next?
Friendly reminder: values = log10 of IC50, unit µM.

{"given-smiles": "O=C(CCCCCCC(=O)NCC1CCN(Cc2ccccc2)CC1)NO", "experimental-system": "Histone deacetylase", "log10(IC50)": -0.23}

I would be grateful if you could provide log10(IC50) for each of the following entries.
1. O=C(/C=C/c1cccc(C(=O)NCC2CCN(Cc3ccccc3)CC2)c1)NO
2. COc1cc(/C=C/C(=O)NO)ccc1C(=O)NCC1CCN(Cc2ccccc2)CC1
3. Nc1ccccc1NC(=O)CCCCCCCC(=O)NCC1CCN(Cc2ccccc2)CC1
4. Nc1ccccc1NC(=O)CCc1ccc(C(=O)NCC2CCN(Cc3ccccc3)CC2)cc1
5. O=C(/C=C/c1ccc(C(=O)NO)cc1)NCC1CCN(Cc2ccccc2)CC1
6. COc1cc(CCC(=O)NO)ccc1C(=O)NCC1CCN(Cc2ccccc2)CC1
7. O=C(CCCCCCCC(=O)NCC1CCN(Cc2ccccc2)CC1)NO

1: -1.17; 2: -1.70; 3: 0.06; 4: -0.34; 5: 0.32; 6: -0.77; 7: -0.37

Answer for every listed entry: what is its log10(IC50)? The entries follow.
1. O=C(NO)c1ccc(C(=O)NCC2CCN(Cc3ccccc3)CC2)cc1
2. Nc1ccccc1NC(=O)CCc1cccc(C(=O)NCC2CCN(Cc3ccccc3)CC2)c1
3. O=C(NO)c1cccc(C(=O)NCC2CCN(Cc3ccccc3)CC2)c1
4. O=C(NO)c1ccc(S(=O)(=O)NCC2CCN(Cc3ccccc3)CC2)cc1

[-0.85, 0.08, -0.10, -0.35]

The following molecules each have a reported value; give each one's log10(IC50).
1. O=C(NO)c1cccc(S(=O)(=O)NCC2CCN(Cc3ccccc3)CC2)c1
2. COc1cc(/C=C/C(=O)Nc2ccccc2N)ccc1C(=O)NCC1CCN(Cc2ccccc2)CC1
3. Nc1ccccc1NC(=O)/C=C/c1cccc(C(=O)NCC2CCN(Cc3ccccc3)CC2)c1
4. O=C(CCc1cccc(C(=O)NCC2CCN(Cc3ccccc3)CC2)c1)NO
5. O=C(NO)c1ccc(CNCC2CCN(Cc3ccccc3)CC2)cc1

1. 0.83
2. 0.10
3. 0.21
4. -0.33
5. 0.15

For each listed entry, give its log10(IC50).
1. O=C(CCc1ccc(C(=O)NCC2CCN(Cc3ccccc3)CC2)cc1)NO
2. Nc1ccccc1NC(=O)c1cccc(C(=O)NCC2CCN(Cc3ccccc3)CC2)c1
3. Nc1ccccc1NC(=O)/C=C/c1ccc(C(=O)NCC2CCN(Cc3ccccc3)CC2)cc1

0.00
0.33
-0.74

Answer for every listed entry: what is its log10(IC50)? The entries follow.
1. Nc1ccccc1NC(=O)c1cccc(S(=O)(=O)NCC2CCN(Cc3ccccc3)CC2)c1
2. O=C(/C=C/c1ccc(C(=O)NCC2CCN(Cc3ccccc3)CC2)cc1)NO

1. 0.11
2. -0.55

The reported numbers originate from ChEMBL document CHEMBL5223174.
